Origin of measurements: PubChem BioAssay AID1508601

Target: Cellular tumor antigen p53 (Homo sapiens) (UniProt P04637)
Sequence (P04637 whole entry, looked up): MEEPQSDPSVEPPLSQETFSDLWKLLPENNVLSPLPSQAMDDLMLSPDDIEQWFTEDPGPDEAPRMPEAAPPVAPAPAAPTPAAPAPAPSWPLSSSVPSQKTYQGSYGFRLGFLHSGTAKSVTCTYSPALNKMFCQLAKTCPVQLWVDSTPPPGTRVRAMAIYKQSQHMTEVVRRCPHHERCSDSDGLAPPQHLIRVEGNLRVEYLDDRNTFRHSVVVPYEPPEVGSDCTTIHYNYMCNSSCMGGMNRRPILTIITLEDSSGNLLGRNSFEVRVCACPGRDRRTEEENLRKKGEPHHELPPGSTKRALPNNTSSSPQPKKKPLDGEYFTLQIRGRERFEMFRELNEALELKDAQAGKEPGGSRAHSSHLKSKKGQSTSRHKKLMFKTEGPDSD
Assay: nuclear p53 accumulation, HPV+ cells – imaging, p53-positive nuclei imaging, 24 h, 48 h (AID 1508601)
Conditions: 24/48 h, Library stock concentration: 80 uM
Among all 5,700 compounds or so, about 85 (1%) were called active. No stated cut-off is given here; in the data, active means p53-positive nuclei above about 36% (passing the limit was not always enough); inactive means the rest. This excerpt belongs to a sample that is enriched for actives.
Labels: Y for active, N for inactive

                                   compound  class_label
0  COC(=O)c1c(NC(=O)CC2SC(=N)NC2=O)sc(C)c1C (stereo not given)            N
1  CC(C)C1C(=O)NC(CCCN=C(N)N)C(=O)NCC(=O)NC(CC(=O)O)C(=O)NC(Cc2ccccc2)C(=O)N1C (stereo not given)            N
2   OCCCNc1cc(-c2ccnc(Nc3cccc(Cl)c3)n2)ccn1            Y
3  Nc1ncn([C@@H]2O[C@@H](CO)[C@H](O)[C@@H]2O)c(=O)n1            N
4  O=C(Nc1ccc(-c2ccnc(Nc3ccc(N4CCOCC4)cc3)n2)cc1)C1CCCN1 (stereo not given)            N
5  CN1CCC(c2c(O)cc(O)c3c(=O)cc(-c4ccccc4Cl)oc23)C1CO (stereo not given)            N
6  CN1CC[C@H](c2c(O)cc(O)c3c(=O)cc(-c4ccccc4Cl)oc23)C(O)C1 (stereo not given in full)            N
7  COc1ccc(N(C(=O)Nc2c(C)cccc2C)c2cc(Nc3ccc(N4CCN(C)CC4)cc3OC)ncn2)c(OC)c1            N
8  CCc1cnn2c(NCc3ccc[n+]([O-])c3)cc(N3CCCCC3CCO)nc12 (stereo not given)            Y
9  COc1ccc(-c2ccc3ncc4c(c3c2)n(-c2ccc(N3CCNCC3)c(C(F)(F)F)c2)c(=O)n4C)cn1            N
